The values you see were collected from patent US8962830B2.

Listing of recorded pIC50 by entry.
- Test system: RasNIH3T3
- experimental details: Cellular activity, MTT cell growth assay, RasNIH3T3
- Format: cell-based
- experimental parameters: 96 h; MTT, 4 days incubation; read-out: RasNIH3T3 (cellular data)
pIC50: −log10 of the molar value.
recorded metric: pIC50

- Cc1ccc(-c2nn(C(C)(C)CNC(=O)c3cc(Cl)ccn3)c3ncnc(N)c23)cc1: 5.20
- Cc1ccc(-c2nn(C(C)(C)CNC(=O)c3cc(-c4ccccc4)ccn3)c3ncnc(N)c23)cc1: 6.30
- Cc1ccc(-c2nn(C(C)(C)CNC(=O)c3cc(Br)ccn3)c3ncnc(N)c23)cc1: 5.72

----------
- subject of test: Src recombinant enzyme, N-terminally His6 tagged full-length human protein (Homo sapiens, UniProt P12931)
- Construct: Src recombinant enzyme was purchased as N-terminally His6 tagged full-length human protein; His6 (N)
- Sequence (P12931 whole entry): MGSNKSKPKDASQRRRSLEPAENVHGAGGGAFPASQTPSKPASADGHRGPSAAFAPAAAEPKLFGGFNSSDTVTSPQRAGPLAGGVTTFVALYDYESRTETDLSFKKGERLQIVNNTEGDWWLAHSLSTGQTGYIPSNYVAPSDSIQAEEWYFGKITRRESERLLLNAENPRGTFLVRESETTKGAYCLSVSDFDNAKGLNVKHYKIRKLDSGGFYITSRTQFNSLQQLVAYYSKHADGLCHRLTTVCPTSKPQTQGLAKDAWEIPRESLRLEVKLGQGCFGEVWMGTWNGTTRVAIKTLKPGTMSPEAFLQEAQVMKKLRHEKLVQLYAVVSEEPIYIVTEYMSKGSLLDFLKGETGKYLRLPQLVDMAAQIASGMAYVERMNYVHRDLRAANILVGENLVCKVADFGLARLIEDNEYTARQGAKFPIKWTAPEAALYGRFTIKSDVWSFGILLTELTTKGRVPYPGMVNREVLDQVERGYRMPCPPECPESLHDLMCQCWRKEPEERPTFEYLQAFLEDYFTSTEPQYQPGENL
- experimental details: SRC kinase inhibition assay (AlphaScreen)
- experimental parameters: 80 μM ATP, 90 minutes at 30 degree Celsius
Listing of recorded IC50 by entry.
recorded metric: IC50

- Cc1ccc(-c2nn(C(C)(C)CNC(=O)c3cccn3C)c3ncnc(N)c23)cc1: 100 to 1000 nM
- Cc1ccc(-c2nn(C(C)(C)CNC(=O)c3ccccc3F)c3ncnc(N)c23)cc1: 100 to 1000 nM
- Cc1ccc(-c2nn(C(C)(C)CNC(=O)c3cccc(C#N)c3)c3ncnc(N)c23)cc1: 100 to 1000 nM
- Cc1ccc(-c2nn(C(C)(C)CNC(=O)c3cc(C)nn3Cc3ccc(F)cc3)c3ncnc(N)c23)cc1: 100 to 1000 nM
- Cc1ccc(-c2nn(C(C)(C)CNC(=O)c3ccnnc3)c3ncnc(N)c23)cc1: 100 to 1000 nM
- Cc1ccc(-c2nn(C(C)(C)CNC(=O)c3ccc(F)cc3)c3ncnc(N)c23)cc1: 100 to 1000 nM
- Cc1ccc(-c2nn(C(C)(C)CNC(=O)c3cc(-c4ccc(F)cc4)ncn3)c3ncnc(N)c23)cc1: 1000 to 10000 nM
- Cc1ccc(-c2nn(C(C)(C)CNC(=O)c3cnn(-c4ccc(F)cc4)c3C(F)(F)F)c3ncnc(N)c23)cc1: 1 to 100 nM
- Cc1ccc(-c2nn(C(C)(C)CNC(=O)CCN3CCOCC3)c3ncnc(N)c23)cc1: 100 to 1000 nM

----------
- subject of test: Src recombinant enzyme, N-terminally His6 tagged full-length human protein (Homo sapiens)
- Construct: Src recombinant enzyme was purchased as N-terminally His6 tagged full-length human protein; His6 (N)
- experimental details: SRC kinase inhibition assay (AlphaScreen)
- experimental parameters: 80 μM ATP, 90 minutes at 30 degree Celsius
Listing of recorded IC50 by entry.
recorded metric: IC50

- Cc1ccc(-c2nn(C(C)(C)CNC(=O)CCCc3ccccc3)c3ncnc(N)c23)cc1 [Example 20]: 100 to 1000 nM
- Cc1ccc(-c2nn(C(C)(C)CNC(=O)c3ccncn3)c3ncnc(N)c23)cc1 [Example 62]: 1 to 100 nM
- Cc1ccc(-c2nn(C(C)(C)CNC(=O)CC#N)c3ncnc(N)c23)cc1 [Example 19]: 1 to 100 nM
- Cc1ccc(-c2nn(C(C)(C)CNC(=O)c3cncnc3)c3ncnc(N)c23)cc1 [Example 57]: 1000 to 10000 nM
- CC(=O)CCC(=O)NCC(C)(C)n1nc(-c2ccc(C)cc2)c2c(N)ncnc21 [Example 16]: 1000 to 10000 nM
